Every entry's value here was drawn from patent US8268827B2.

// values below are reported IC50
# Test target: PARP-1 (Homo sapiens, UniProt P09874)
# Construct: purchased Trevigen 4668-500-01
# Sequence (P09874 whole entry): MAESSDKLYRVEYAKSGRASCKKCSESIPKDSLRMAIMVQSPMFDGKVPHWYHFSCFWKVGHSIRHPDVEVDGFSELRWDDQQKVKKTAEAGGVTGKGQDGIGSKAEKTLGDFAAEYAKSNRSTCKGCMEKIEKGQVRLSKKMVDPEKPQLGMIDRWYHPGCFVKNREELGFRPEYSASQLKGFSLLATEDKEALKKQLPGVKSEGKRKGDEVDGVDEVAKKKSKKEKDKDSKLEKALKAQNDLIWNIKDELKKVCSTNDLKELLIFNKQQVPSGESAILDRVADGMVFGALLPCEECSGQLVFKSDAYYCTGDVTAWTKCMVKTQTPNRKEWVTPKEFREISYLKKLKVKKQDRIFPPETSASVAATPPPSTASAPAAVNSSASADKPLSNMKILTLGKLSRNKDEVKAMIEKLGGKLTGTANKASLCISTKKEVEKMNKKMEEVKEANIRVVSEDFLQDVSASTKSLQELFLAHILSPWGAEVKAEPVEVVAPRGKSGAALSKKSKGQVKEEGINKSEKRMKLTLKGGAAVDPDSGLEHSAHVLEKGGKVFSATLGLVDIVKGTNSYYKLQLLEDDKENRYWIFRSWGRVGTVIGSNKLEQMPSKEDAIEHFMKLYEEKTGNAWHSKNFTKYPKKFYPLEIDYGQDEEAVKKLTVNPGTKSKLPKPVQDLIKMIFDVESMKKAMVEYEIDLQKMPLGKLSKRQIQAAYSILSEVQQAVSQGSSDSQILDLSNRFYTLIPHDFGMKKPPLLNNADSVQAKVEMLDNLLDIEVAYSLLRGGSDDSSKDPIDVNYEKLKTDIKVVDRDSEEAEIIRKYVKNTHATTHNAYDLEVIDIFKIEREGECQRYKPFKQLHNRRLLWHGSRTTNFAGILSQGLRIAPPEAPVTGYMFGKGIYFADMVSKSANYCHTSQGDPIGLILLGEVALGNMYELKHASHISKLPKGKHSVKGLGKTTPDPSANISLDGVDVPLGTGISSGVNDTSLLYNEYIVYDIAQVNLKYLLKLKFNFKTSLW
# Assay method text: PARP-1 SPA assay
# Format: biochemical
Counter-ions that a name gives are not always drawn.

Recorded results for 5 compounds are shown here.
Compound: Cc1c(Cc2ccc(F)c(C(=O)N3CC(=O)N4CCOCC4C3)c2)n[nH]c(=O)c1C(F)(F)F (stereo not drawn) [Example 136, trifluoroacetate]
IC50: < 5 nM
--
Compound: CCN1C(=O)CN(C(=O)c2cc(Cc3n[nH]c(=O)c(C(F)(F)F)c3C)ccc2F)CC1C (stereo not drawn) [Example 147, trifluoroacetate]
IC50: 5 to 25 nM
--
Compound: Cc1c(Cc2ccc(F)c(C(=O)N3CCN(c4cnc5ccccc5c4)C(=O)C3)c2)n[nH]c(=O)c1C
IC50: < 5 nM
--
Compound: O=C(c1cc(Cc2cc(C(F)(F)F)c(=O)[nH]n2)ccc1F)N1CC(=O)N2CCCC[C@H]2C1 (single isomer, unassigned) [92 (ZZ1)]
IC50: < 5 nM
--
Compound: Cc1c(Cc2ccc(F)c(C(=O)N3CCN(CC4CCCc5ccccc54)C(=O)C3)c2)n[nH]c(=O)c1C (stereo not drawn) [Example 53, trifluoroacetate]
IC50: 5 to 25 nM

Continue with the compound presented below.
-- ask State its IC50 on PARP-1 (Homo sapiens, UniProt P09874): Cc1c(Cc2ccc(F)c(C(=O)N3CCN(C4CCOC(C)(C)C4)C(=O)C3)c2)n[nH]c(=O)c1C (stereo not drawn) [Example 76, trifluoroacetate]
-- reply < 5 nM

----------
# Test system: BRCA-1 silenced HeLa cells (HeLa shBRCA1-GFP)
# Assay method text: Proliferation assay in BRCA-1 silenced HeLa cells
# Type: cell-based
# Condition context: Homo sapiens; BRCA1 silenced HeLa cells, 168 hours; read-out: CC50 in the BRCA1 silenced HeLa cells
Structures can show the parent of a compound that is named as a salt.
// values below are reported CC50

Recorded results for 3 molecules are shown here.
Molecule: Cc1c(Cc2ccc(F)c(C(=O)N3CCN([C@H]4CCOC4)C(=O)C3)c2)n[nH]c(=O)c1C
CC50: 50 to 500 nM
--
Molecule: Cc1c(Cc2ccc(F)c(C(=O)N3CCN([C@@H]4C[C@H]5CC[C@@H]4C5)C(=O)C3)c2)n[nH]c(=O)c1C [Example 101, trifluoroacetate]
CC50: < 50 nM
--
Molecule: Cc1c(Cc2ccc(F)c(C(=O)N3CCN(c4ccccn4)C(=O)C3)c2)n[nH]c(=O)c1C [Example 31, trifluoroacetate]
CC50: < 5000 nM

-- ask State its CC50 on BRCA-1 silenced HeLa cells (HeLa shBRCA1-GFP): Cc1c(Cc2ccc(F)c(C(=O)N3CCN(C4CCCC(C)(C)C4)C(=O)C3)c2)n[nH]c(=O)c1C (stereo not drawn) [Example 51, trifluoroacetate]
-- reply 50 to 500 nM

-- ask State its CC50 on BRCA-1 silenced HeLa cells (HeLa shBRCA1-GFP): `CCc1cc(Cc2ccc(F)c(C(=O)N3CCN([C@@H]4CCCOC4)C(=O)C3)c2)n[nH]c1=O`
-- reply 50 to 500 nM

-- ask State its CC50 on BRCA-1 silenced HeLa cells (HeLa shBRCA1-GFP): Cc1c(Cc2ccc(F)c(C(=O)N3CC(=O)N4CCCC[C@H]4C3)c2)n[nH]c(=O)c1C(F)(F)F [Example 135, trifluoroacetate]
-- reply < 50 nM

----------
// values below are reported CC50
# Tested on: BRCA-1 silenced HeLa cells (HeLa shBRCA1-GFP)
# Assay method text: Proliferation assay in BRCA-1 silenced HeLa cells
# Type: cell-based
# Condition context: Homo sapiens; BRCA1 silenced HeLa cells, 168 hours; read-out: CC50 in the BRCA1 silenced HeLa cells
# Experimental: Proliferation Assay in BRCA-1 Silenced HeLa Cells Compounds of the present invention were also tested in an anti-proliferative assay in matched pair BRCA1 wt and BRCA1-(shRNA) HeLa cells. […] HeLa shBRCA1-GFP—These are HeLa cells transduced at an MOI of 100 with a Lentivirus containing a shRNA against BRCA-1 and an expression cassette for GFP. BRCA-1 silencing is more than 80% as assessed by Taqman analysis and the cells stably express GFP. […]
Structures can show the parent of a compound that is named as a salt.

Molecule: CCN1CCN(C(=O)c2cc(Cc3n[nH]c(=O)c(C(F)(F)F)c3C)ccc2F)CC1=O [Example 105, trifluoroacetate]
Observed: < 50 nM

-- ask Any idea what its CC50 is? The molecule is Cc1c(Cc2ccc(F)c(C(=O)N3CC(=O)N(C4CCCC4)[C@@H](C)C3)c2)n[nH]c(=O)c1C [Example 114]
-- reply < 50 nM

-- ask Any idea what its CC50 is? The molecule is COCC(C)N1CCN(C(=O)c2cc(Cc3n[nH]c(=O)c(C)c3C)ccc2F)CC1=O (stereo not shown) [Example 162]
-- reply < 50 nM

-- ask Any idea what its CC50 is? The molecule is CCN1CCN(C(=O)c2cc(Cc3n[nH]c(=O)c(C)c3C)ccc2F)CC1=O [Example 17, trifluoroacetate]
-- reply 50 to 500 nM

----------
# Tested on: BRCA-1 silenced HeLa cells (HeLa shBRCA1-GFP)
# Assay method text: Proliferation assay in BRCA-1 silenced HeLa cells
# Format: cell-based
# Condition context: Homo sapiens; BRCA1 silenced HeLa cells, 168 hours; read-out: CC50 in the BRCA1 silenced HeLa cells
Structures can show the parent of a compound that is named as a salt.
Quantity measured: CC50

Recorded results for 2 molecules are shown here.
Molecule: O=C(c1cc(Cc2cc(C(F)(F)F)c(=O)[nH]n2)ccc1F)N1CC(=O)N2CCCCC2C1 (racemic) [Example 91]
CC50: 50 to 500 nM

Molecule: Cc1c(Cc2ccc(F)c(C(=O)N3CC(=O)N(c4ccc(C#N)c(F)c4)[C@@H](C)C3)c2)n[nH]c(=O)c1C [Example 174]
CC50: < 50 nM

-- ask Any idea what its CC50 is? The molecule is Cc1c(Cc2ccc(F)c(C(=O)N3CCN(CC4(C)CCCO4)C(=O)C3)c2)n[nH]c(=O)c1C (centres unmarked) [Example 97, trifluoroacetate]
-- reply < 5000 nM

-- ask Any idea what its CC50 is? The molecule is Cc1c(Cc2ccc(F)c(C(=O)N3CCN(C4CCC(c5ccccc5)CC4)C(=O)C3)c2)n[nH]c(=O)c1C (centres unmarked) [Example 68, trifluoroacetate]
-- reply < 50 nM

-- ask Any idea what its CC50 is? The molecule is O=C(c1cc(Cc2cc(C(F)(F)F)c(=O)[nH]n2)ccc1F)N1CCN([C@@H]2CCCOC2)C(=O)C1 [Example 154]
-- reply < 5000 nM

-- ask Any idea what its CC50 is? The molecule is Cc1c(Cc2ccc(F)c(C(=O)N3CCN([C@H](c4ccccc4)C(F)F)C(=O)C3)c2)n[nH]c(=O)c1C [Example 123, trifluoroacetate]
-- reply 50 to 500 nM

-- ask Any idea what its CC50 is? The molecule is Cc1c(Cc2ccc(F)c(C(=O)N3CC(=O)N(c4cccc(Cl)c4)[C@@H](C)C3)c2)n[nH]c(=O)c1C [Example 177]
-- reply < 50 nM

----------
# Test system: BRCA-1 silenced HeLa cells (HeLa shBRCA1-GFP)
# Assay method text: Proliferation assay in BRCA-1 silenced HeLa cells
# Assay type: cell-based
# Condition context: Homo sapiens; BRCA1 silenced HeLa cells, 168 hours; read-out: CC50 in the BRCA1 silenced HeLa cells
Counter-ions that a name gives are not always drawn.
Quantity measured: CC50

Recorded results for 5 compounds are shown here.
Compound: Cc1c(Cc2ccc(F)c(C(=O)N3CCN([C@@H]4CCOC4)C(=O)C3)c2)n[nH]c(=O)c1C [Example 112]
Test target: BRCA-1 silenced HeLa cells (HeLa shBRCA1-GFP)
Observed: < 5 µM
//
Compound: Cc1c(Cc2ccc(F)c(C(=O)N3CCN(c4ccc(S(C)(=O)=O)cc4)C(=O)C3)c2)n[nH]c(=O)c1C [Example 95, trifluoroacetate]
Test target: BRCA-1 silenced HeLa cells (HeLa shBRCA1-GFP)
Observed: 0.05 to 0.5 µM
//
Compound: Cc1c(Cc2ccc(F)c(C(=O)N3CCN(C4CC(F)(F)C4)C(=O)C3)c2)n[nH]c(=O)c1C [Example 55, trifluoroacetate]
Test target: BRCA-1 silenced HeLa cells (HeLa shBRCA1-GFP)
Observed: 0.05 to 0.5 µM
//
Compound: Cc1c(Cc2ccc(F)c(C(=O)N3CCN(CCc4ccccc4)C(=O)C3)c2)n[nH]c(=O)c1C [Example 21, trifluoroacetate]
Test target: BRCA-1 silenced HeLa cells (HeLa shBRCA1-GFP)
Observed: 0.05 to 0.5 µM
//
Compound: CCc1cc(Cc2ccc(F)c(C(=O)N3CCN(C4CCCCC4)C(=O)C3)c2)n[nH]c1=O [Example 6, trifluoroacetate]
Test target: BRCA-1 silenced HeLa cells (HeLa shBRCA1-GFP)
Observed: 0.05 to 0.5 µM

-- ask Any idea what its CC50 is? The compound is O=C(c1cc(Cc2cc(C(F)(F)F)c(=O)[nH]n2)ccc1F)N1CCN(C2CCCC2)C(=O)C1 [Example 33, trifluoroacetate]
-- reply 0.05 to 0.5 µM

-- ask Any idea what its CC50 is? The compound is CCCCN1CCN(C(=O)c2cc(Cc3n[nH]c(=O)c(C)c3C)ccc2F)CC1=O [Example 18, trifluoroacetate]
-- reply 0.05 to 0.5 µM

-- ask Any idea what its CC50 is? The compound is Cc1c(Cc2ccc(F)c(C(=O)N3CC(=O)N(c4ccc(C#N)cc4)[C@@H](C)C3)c2)n[nH]c(=O)c1C [Example 166]
-- reply < 0.05 µM

-- ask Any idea what its CC50 is? The compound is COc1cccc(N2CCN(C(=O)c3cc(Cc4n[nH]c(=O)c(C)c4C)ccc3F)CC2=O)c1 [Example 22, trifluoroacetate]
-- reply 0.05 to 0.5 µM

-- ask Any idea what its CC50 is? The compound is COc1ccc(CN2CCN(C(=O)c3cc(Cc4n[nH]c(=O)c(C)c4C)ccc3F)CC2=O)cc1 [Example 20, trifluoroacetate]
-- reply 0.05 to 0.5 µM

-- ask Any idea what its CC50 is? The compound is Cc1c(Cc2ccc(F)c(C(=O)N3CC(=O)N(C4CCCC4)[C@H](C(C)C)C3)c2)n[nH]c(=O)c1C [Example 207]
-- reply < 5 µM

-- ask Any idea what its CC50 is? The compound is CCc1cc(Cc2ccc(F)c(C(=O)N3CCN(c4ccccc4)C(=O)C3)c2)n[nH]c1=O [Example 5, trifluoroacetate]
-- reply 0.05 to 0.5 µM

-- ask Any idea what its CC50 is? The compound is Cc1c(Cc2ccc(F)c(C(=O)N3CCN(c4cc(Cl)cc(Cl)c4)C(=O)C3)c2)n[nH]c(=O)c1C [Example 42, trifluoroacetate]
-- reply < 0.05 µM

-- ask Any idea what its CC50 is? The compound is CCc1cc(Cc2ccc(F)c(C(=O)N3CCN(C4CCCOC4)C(=O)C3)c2)n[nH]c1=O (centres unmarked) [Example 133, trifluoroacetate]
-- reply 0.05 to 0.5 µM

-- ask Any idea what its CC50 is? The compound is Cc1c(Cc2ccc(F)c(C(=O)N3CC(=O)N(C4CCC(F)(F)C4)C(C)C3)c2)n[nH]c(=O)c1C (centres unmarked) [Example 127, trifluoroacetate]
-- reply < 0.05 µM

-- ask Any idea what its CC50 is? The compound is Cc1c(Cc2ccc(F)c(C(=O)N3CCN(C4CCc5ccccc5C4)C(=O)C3)c2)n[nH]c(=O)c1C (centres unmarked) [Example 70, trifluoroacetate]
-- reply < 0.05 µM

-- ask Any idea what its CC50 is? The compound is Cc1c(Cc2ccc(F)c(C(=O)N3CCN(c4ccc(F)c(Cl)c4)C(=O)C3)c2)n[nH]c(=O)c1C [Example 10, trifluoroacetate]
-- reply < 0.05 µM

-- ask Any idea what its CC50 is? The compound is CCc1cc(Cc2ccc(F)c(C(=O)N3CCN([C@H]4CCc5ccccc5C4)C(=O)C3)c2)n[nH]c1=O [Example 159]
-- reply < 0.05 µM

-- ask Any idea what its CC50 is? The compound is CCc1cc(Cc2ccc(F)c(C(=O)N3CCN([C@@H]4CCc5ccccc5C4)C(=O)C3)c2)n[nH]c1=O [Example 160]
-- reply 0.05 to 0.5 µM

-- ask Any idea what its CC50 is? The compound is CCc1c(Cc2ccc(F)c(C(=O)N3CCN(C4CCCCC4)C(=O)C3)c2)n[nH]c(=O)c1C [Example 28, trifluoroacetate]
-- reply 0.05 to 0.5 µM

-- ask Any idea what its CC50 is? The compound is CCc1cc(Cc2ccc(F)c(C(=O)N3CCN([C@H]4CCCOC4)C(=O)C3)c2)n[nH]c1=O [Example 144]
-- reply < 5 µM

-- ask Any idea what its CC50 is? The compound is Cc1c(Cc2ccc(F)c(C(=O)N3CCN(c4cc(C(F)(F)F)ccn4)C(=O)C3)c2)n[nH]c(=O)c1C [Example 61, trifluoroacetate]
-- reply 0.05 to 0.5 µM

-- ask Any idea what its CC50 is? The compound is Cc1c(Cc2ccc(F)c(C(=O)N3CCN(C4Cc5ccccc5C4)C(=O)C3)c2)n[nH]c(=O)c1C [Example 71, trifluoroacetate]
-- reply 0.05 to 0.5 µM

-- ask Any idea what its CC50 is? The compound is Cc1c(Cc2ccc(F)c(C(=O)N3CCN(C4CCCCC4)C(=O)C3)c2)n[nH]c(=O)c1C [Example 2, trifluoroacetate]
-- reply < 0.05 µM

-- ask Any idea what its CC50 is? The compound is CCc1cc(Cc2ccc(F)c(C(=O)N3CCN(C4CCc5ccccc5C4)C(=O)C3)c2)n[nH]c1=O (centres unmarked) [Example 148]
-- reply 0.05 to 0.5 µM

-- ask Any idea what its CC50 is? The compound is Cc1c(Cc2ccc(F)c(C(=O)N3CCN(C4CCOCC4)C(=O)C3)c2)n[nH]c(=O)c1C(F)(F)F [Example 146, trifluoroacetate]
-- reply < 0.05 µM
